In this section we review reported STAT6 Bioassay IC50 (HEK293 STAT6 luciferase, 10 pM hIL-4) values for a set of binders.
Target: T1, hIL-4R on cells (STAT6-transfected HEK293, TF1, TF1/A12) (human, UniProt P24394 26-825)
T1 sequence (looked up): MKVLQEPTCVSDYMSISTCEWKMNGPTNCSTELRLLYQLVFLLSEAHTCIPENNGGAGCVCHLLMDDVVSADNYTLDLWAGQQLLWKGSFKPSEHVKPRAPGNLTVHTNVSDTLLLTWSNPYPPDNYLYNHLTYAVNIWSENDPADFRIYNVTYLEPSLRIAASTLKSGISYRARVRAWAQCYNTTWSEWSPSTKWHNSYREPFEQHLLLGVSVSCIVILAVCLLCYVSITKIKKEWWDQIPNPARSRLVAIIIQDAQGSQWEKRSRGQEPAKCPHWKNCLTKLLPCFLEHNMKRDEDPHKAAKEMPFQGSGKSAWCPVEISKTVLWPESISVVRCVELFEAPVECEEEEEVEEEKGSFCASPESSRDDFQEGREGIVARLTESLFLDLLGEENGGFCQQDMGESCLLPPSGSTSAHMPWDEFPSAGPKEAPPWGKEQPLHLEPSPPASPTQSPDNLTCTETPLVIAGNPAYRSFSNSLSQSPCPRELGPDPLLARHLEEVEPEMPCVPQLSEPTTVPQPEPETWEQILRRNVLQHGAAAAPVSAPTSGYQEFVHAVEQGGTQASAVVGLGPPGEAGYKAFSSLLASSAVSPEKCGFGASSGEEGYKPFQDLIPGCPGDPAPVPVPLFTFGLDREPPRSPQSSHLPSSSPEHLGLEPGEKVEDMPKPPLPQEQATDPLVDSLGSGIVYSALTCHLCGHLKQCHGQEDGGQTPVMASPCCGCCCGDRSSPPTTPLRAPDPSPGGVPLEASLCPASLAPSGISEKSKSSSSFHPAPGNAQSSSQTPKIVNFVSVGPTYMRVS
Test: cell-based or functional assay

Below, 2 binders whose answers are already recorded.
{"binder": "VAB 3B4-10 (antibody, V domains shown, Apparently tested with mouse constant region (anti-mouse IgG capture/detection)) VH: QVHLVQSGAEVKKPGASVKVSCKASGYTFTNYGIGWVRQAPGQGLEWMGWISIYNGNTNYAQRLQGRVTMTTDTSTSTAFMDLRSLKSDDTAVYYCARGSGYNFDHWGQGTLVTVSS VL: AIQMTQSPSSLSASVGDRVTITCRASQGIRNDLGWYQQIPGKAPKLLIYAASSLQSGVPSRFSGSGSGTDFTLTISNLQPEDFAVYFCLQDNTYPYTFGQGTNLESK", "observed.value": "> 10 nM"}
{"binder": "VX 3F7-6 (antibody, V domains shown, 395/397; 399/401 without saying which was assayed; Apparently tested with mouse constant region (anti-mouse IgG capture/detection)) VH: EVQLVESGGGLVQPGGSLRLSCAASGFTFSSFWMTWVRQAPGKGLEWVANIKQDGSEKYYVDSVKGRFTISRDNAKNSLYLQMNSLRAEDTAVYYCARDPGRTMVRGGIRYYYGMDVWGQGTTVTVSS VL: DIQMTQSPSSVSASVGDRVTISCRASQGVSSWLAWYQQKPGNAPKLLISAASSIQSGVPSRFSGSGSGTDFTLTISSLQPEDFATYYCQQANSFPLTFGGGTKVEIK", "observed.value": "> 10 nM"}

Note: attention shifts to another entry.
// query // STAT6 Bioassay IC50 (HEK293 STAT6 luciferase, 10 pM hIL-4) lookup, key: VAK5H4-4 (antibody, V domains shown, Apparently tested with mouse constant region (anti-mouse IgG capture/detection)) VH: QVRLVESGGGVVQPGGSLRLSCVASGFTFRSYGMHWVRQAPGRGLEWVAVISYDGSKTFYVDSVKVRFTISRDNSKNTLYLEMNSLRVDDTAVYFCVKEGRSGSWFDPWGQGTLVAVSS VL: DIQMTQSPSSLSASVGDRVTITCRASQAINNFLAWFQQKPGKTPNSLIFATSSLQSGVPSRFSAGGSGTDFTLTISSLQPEDFATYYCQQYNSHPWTFGQGTKVEIK
// result 0.132 nM

Data provenance is patent US20080160035A1.
